Data provenance: paper PMC6212790

Target: GST-Rok-C97-191 (Bacillus subtilis subsp. subtilis str. …, UniProt O34857 97-191)
Sequence: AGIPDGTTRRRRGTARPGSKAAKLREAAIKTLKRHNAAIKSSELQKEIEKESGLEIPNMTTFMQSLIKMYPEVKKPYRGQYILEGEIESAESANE
Test: protein binding microarray; Rok is a gene silencer of Bacillus subtilis; high values mean tight binding
Conditions: protein: recombinant; tags: GST (pTH5325, pDEST15-Magic modified); dsDNA, one strand shown
The full ranking holds about 33,000 sequences; the median of “e-score” is about -0.038, and the highest 2% start at about 0.33. The full list was thinned out, with the highest values kept by preference.
Respond with Y for binding signal values of 0.2 E-score and above, N for values below.

{"columns": ["sequenceData", "classification"],
 "data": [
  ["GACTACTC", "N"],
  ["ATATGTAC", "Y"],
  ["CGTACTTA", "Y"],
  ["AACTACTC", "Y"],
  ["AACTACGG", "N"],
  ["CTCGACGA", "N"],
  ["TCTTAAAA", "N"],
  ["CACTAGCA", "N"],
  ["AGCTACCT", "Y"],
  ["AGTACTTA", "Y"],
  ["CAGGCGAC", "N"],
  ["ACGGCAAT", "N"],
  ["ATGCGGCG", "N"],
  ["TCTACTCA", "N"],
  ["GCCTACTA", "Y"],
  ["GACTAGCA", "N"],
  ["AACTACTG", "Y"],
  ["AGCTACTG", "Y"],
  ["AACTGCTA", "N"],
  ["AAGAGTAG", "Y"],
  ["AGCTACCC", "N"],
  ["GACTACGA", "N"],
  ["TGGCTGAA", "N"],
  ["AGATGTAA", "N"],
  ["GATAGAGC", "N"],
  ["GGTACTAA", "Y"],
  ["AACTAGCG", "Y"],
  ["CACTGCTA", "N"],
  ["ATAAGAAG", "N"],
  ["TGTACTAA", "N"],
  ["GACTCTCA", "N"],
  ["AACTACTA", "Y"],
  ["GACTACTA", "Y"],
  ["GGCTACTA", "N"],
  ["AGATGTAG", "Y"],
  ["AACTAGCA", "Y"],
  ["GCTACTAA", "Y"],
  ["ACCTCTTA", "N"],
  ["GAAAGTGC", "N"],
  ["ACCTACTC", "N"],
  ["CCTTCTCC", "N"],
  ["AACTATTG", "Y"],
  ["AGCTACCA", "Y"],
  ["CCGACGTA", "N"],
  ["ACTACTAA", "Y"],
  ["ATGTCGCC", "N"]
]}
